# Test system: Plasmodium berghei
# method notes: Luciferase/luciferin-expressing antifolate-resistant parasites were used to infect a culture of HepG2 cells that were pre-incubated with compounds. Infected hepatocytes emit light due to the luciferase reaction. Assay results are presented as the percent inhibition of light emission compared to control. […]
# Assay type: functional
# experimental setup: sporozoite, HEPG2TOX_HILL_SLOPE 4.57, HEPG2TOX_R_SQUARED 0.844, PBLUC_HILL_SLOPE 7.94, PBLUC_R_SQUARED 0.6, read-out: LUCIFERASE INFECTION ASSAY - IC50
readout name: IC50

// query What value of IC50 has been reported for the following compound? COc1cc(C(=O)NNC(=O)c2nn(-c3ccccc3)cc2O)cc(OC)c1OC
// result 8.48 µM
